All values here come from patent US8465726B2.

Test: Organ distribution in normal mice after iv injection
Assay type: in vivo
Conditions: 2 hr after iv injection, ICR mice
Listing of entries alongside the reported Biodistribution, Bone.
# output: bare number, implied unit % dose/g

// worked examples, Biodistribution, Bone included
{"molecule": "CNc1ccc(C=Cc2ccc(OCCOCCOCCOCCF)cc2)cc1 [12c]", "units": "% dose/g", "Biodistribution, Bone": 1.50}
{"molecule": "CNc1ccc(C=Cc2ccc(OCCOCCF)cc2)cc1 [12a]", "units": "% dose/g", "Biodistribution, Bone": 2.88}
{"molecule": "CNc1ccc(C=Cc2ccc(OCCOCCOCCOCCOCCF)cc2)cc1 [12d]", "units": "% dose/g", "Biodistribution, Bone": 2.35}

Query block: What measured Biodistribution, Bone goes with CNc1ccc(C=Cc2ccc(OCCOCCOCC[18F])cc2)cc1 [[^18F]12b] ?
Result block: 2.74
